Data provenance is ChEMBL document CHEMBL4308841.

# System: KM12
# assay_explanation: Growth inhibition of human KM12 cells assessed as cell growth at 1 uM incubated for 48 hrs by sulforhodamine B assay relative to control
# Assay type: functional
# cond: KM12, 48 h, read-out: Activity
Below: a set of entries, each annotated with reported growth at 1 µM.
Kindly format the answer as number then unit.

Here's what some known entries look like.
Observed growth at 1 µM on KM12 for "COc1cc(Cl)cc(-c2nn(-c3cccc(NC(=O)c4cccc(C(F)(F)F)c4)c3)cc2-c2ccncc2)c1" , please.
56%

Same for "COc1cc(Cl)cc(-c2nn(-c3cccc(NC(=O)c4ccc(N5CCOCC5)c(C(F)(F)F)c4)c3)cc2-c2ccncc2)c1"
52%

Same for "O=C(Nc1cccc(-n2cc(-c3ccncc3)c(-c3cc(O)cc(Cl)c3)n2)c1)c1ccc(N2CCOCC2)c(C(F)(F)F)c1"
54%

Same for "COc1cc(Cl)cc(-c2nn(-c3cccc(NC(=O)Nc4ccc(Cl)c(C(F)(F)F)c4)c3)cc2-c2ccncc2)c1"
33%

Same for "O=C(Nc1cccc(-n2cc(-c3ccncc3)c(-c3cc(O)cc(Cl)c3)n2)c1)c1cc(C(F)(F)F)cc(C(F)(F)F)c1"
79%

Please look at the following compound next.
Observed growth at 1 µM on KM12 for "O=C(Nc1cccc(-n2cc(-c3ccncc3)c(-c3cc(O)cc(Cl)c3)n2)c1)Nc1ccc(Cl)c(Cl)c1" , please.
72%
